# Target of assay: Human Constitutive (Hu C-20S) β5 Active Subunit (Homo sapiens, UniProt P28074)
# Experimental details: IC50 determination, human constitutive 20S proteasome β5c (suc-LLVY-AMC hydrolysis)
# Type: biochemical
# Condition: Table 2; several values in a cell are repeat determinations; read-out: Hu c-20S IC50
Property label: IC50 (µM)
Your answer is read as µM, so omit the unit and give the number.

CC[C@H]1CCCCN1C(=O)C[C@H](NC(=O)[C@@H]1C[C@H]1c1ccccc1)C(=O)N[C@@H](C)c1nc2c(F)cccc2[nH]1 [CF-503382]: 12
CC(C)CCC(=O)N[C@@H](CC(=O)N1CCCC[C@@H]1C)C(=O)NCc1nc2ccccc2[nH]1 [CF-503193]: 17.6

Prompt: Value lookup for IC50; key = CC(NC(=O)C(CC(=O)N1CCCCC1C)NC(=O)C1CC(C)(C)C1)c1nc(-c2ccc(F)cc2F)c[nH]1 (stereo not drawn) [CF-503474]
Response: 5.65

Prompt: For Cc1cc(C(=O)N[C@@H](CC(=O)N2CCCCC2C)C(=O)N(C)[C@@H](C)C(=O)NCc2ccc(F)cc2F)no1 (stereo partly drawn) then?
Response: 19

Prompt: For C[C@H](NC(=O)[C@H](CC(=O)N1CCCC[C@@H]1C)NC(=O)CCc1ccccc1)C(=O)NCc1cccc(NC(=O)OC(C)(C)C)c1 then?
Response: 50.2

Prompt: For C[C@H](NC(=O)[C@H](CC(=O)N1CCCC[C@@H]1C)NS(=O)(=O)c1ccccc1)c1ncc(-c2ccc(F)cc2F)[nH]1 [CF-503142] then?
Response: 8.13

----------
# Target of assay: Human Constitutive (Hu C-20S) β5 Active Subunit (Homo sapiens, UniProt P28074)
# Experimental details: IC50 determination, human constitutive 20S proteasome β5c (suc-LLVY-AMC hydrolysis)
# Type: biochemical
# Condition: Table 3; IC50 against human constitutive β5 active subunit; read-out: Hu-C20S β5
The threshold is 10 µM. Values of IC50 beneath it are tagged 1 (yes); values meeting or exceeding it are tagged 0 (no).

C[C@H](NC(=O)[C@H](CC(=O)N1CCC[C@@H]1c1ccccc1)NC(=O)CC1CC1)c1ncc(Cc2ccccc2)[nH]1 [CEN-121]: 0 (no)

Prompt: Consider C[C@H](NC(=O)[C@H](CC(=O)N1CCCC[C@@H]1C)NS(=O)(=O)CCC1CC1)c1ncc(-c2ccc(F)cc2F)[nH]1 [CEN-108] . Does its IC50 lie strictly below 10 µM?
Response: 1 (yes)

Prompt: For CC(C)CS(=O)(=O)N[C@@H](CC(=O)N1CCCC[C@@H]1C)C(=O)N[C@@H](C)c1ncc(-c2ccc(F)cc2F)[nH]1 [CEN-104] then?
Response: 1 (yes)

Prompt: For C[C@@H](NC(=O)[C@H](CC(=O)N1CCCC[C@@H]1C)NC(=O)CC1CC(C)(C)C1)c1nc2c(F)cccc2[nH]1 [CEN-44] then?
Response: 1 (yes)

Prompt: For CC(C)CCS(=O)(=O)N[C@@H](CC(=O)N1CCC[C@@H]1c1ccccc1)C(=O)NC(C)c1nc2ccccc2[nH]1 (stereo partly shown) [CEN-58] then?
Response: 0 (no)

Prompt: For O=C(N[C@@H](CC(=O)N1CCCC1C1CC1)C(=O)NC1(c2nc3cccc(F)c3[nH]2)CC1)C1CC2(C1)CC(F)(F)C2 (stereo partly shown) [CEN-64] then?
Response: 1 (yes)

Prompt: For CC(C)CCC(=O)N[C@@H](CC(=O)N1CCCC[C@@H]1C)C(=O)N[C@@H](C)c1nc2ccccc2[nH]1 [CEN-32] then?
Response: 0 (no)

----------
# Target of assay: Human Constitutive (Hu C-20S) β5 Active Subunit (Homo sapiens)
# Experimental details: IC50 determination, human constitutive 20S proteasome β5c (suc-LLVY-AMC hydrolysis)
# Format: biochemical
# Condition: Table 3; IC50 against human constitutive β5 active subunit; read-out: Hu-C20S β5
pIC50: −log10 of the molar value.
Please note: true applies when pIC50 is 5 or greater, and false applies otherwise.

Example entries and their recorded answers appear below.
C[C@H](NC(=O)[C@H](CC(=O)N1CCC[C@@H]1c1ccccc1)NC(=O)CCCC(F)(F)F)c1nc2ccccc2o1 [CEN-66]: false
CC[C@H]1CCCCN1C(=O)C[C@H](NC(=O)c1cc(C)on1)C(=O)N[C@@H](C)c1nc2c(F)cccc2[nH]1 [CEN-6]: true
C[C@H](NC(=O)[C@H](CC(=O)N1CCC[C@@H]1C)NC(=O)CCC(C)(C)C)c1ncc(-c2ccc(F)cc2F)[nH]1 [CEN-89]: true
CC(C)(C)NC(=O)CC[C@H](NC(=O)CCc1ccc(F)cc1)C(=O)NC1(c2nc3cccc(F)c3[nH]2)CC1 [CEN-73]: false

# evaluate next
Prompt: Hello, I need to know if CC(C)CCC(=O)N[C@@H](CC(=O)N1CCCC[C@@H]1C)C(=O)N[C@H](C)c1nc2ccccc2[nH]1 [CEN-34] has measured pIC50 not below 5. Thanks!
Response: false

----------
// reported IC50 for each item listed
# Target of assay: Human Constitutive (Hu C-20S) β5 Active Subunit (Homo sapiens, UniProt P28074)
# Experimental details: IC50 determination, human constitutive 20S proteasome β5c (suc-LLVY-AMC hydrolysis)
# Assay type: biochemical
# Condition: Table 2; several values in a cell are repeat determinations; read-out: Hu c-20S IC50
Your answer is read as µM, so omit the unit and give the number.

Some molecules with known IC50 results, for comparison:
CC(C)CS(=O)(=O)N[C@@H](CC(=O)N1CCCC[C@@H]1C)C(=O)N[C@@H](C)c1ncc(-c2ccc(F)cc2F)[nH]1 [CF-503141]: 4.9
CC[C@H]1CCCCN1C(=O)C[C@H](NC(=O)C1CC(C)(C)C1)C(=O)N[C@@H](C)c1nc2c(F)cccc2[nH]1 [CF-503464]: 1.26
CC(NC(=O)C(CC(=O)N1CCCCC1C)NC(=O)N(C)Cc1ccccc1)c1nc2c(F)cccc2[nH]1 (stereo not shown) [CF-503460]: 17.2
CCC1CCCCN1C(=O)CC(NC(=O)C1CC1c1ccccc1)C(=O)NC(C)c1nc2c(F)cccc2[nH]1 (stereo not shown): 8.14
CC(C)CCC(=O)N[C@@H](CC(=O)N1CCCC1)C(=O)N[C@@H](C)c1ncc(-c2ccc(F)cc2F)[nH]1 [CF-503159]: 10.4

Prompt: Value lookup for IC50; key = CC(NC(=O)C(CC(=O)N1CCCCC1C)NC(=O)OCc1ccccc1)c1nc2c(F)cccc2[nH]1 (stereo not shown) [CF-503462]
Response: 14.8

Prompt: For CC[C@H]1CCCCN1C(=O)C[C@H](NC(=O)N1CCCCC1)C(=O)N[C@@H](C)c1nc2c(F)cccc2[nH]1 [CF-503454] then?
Response: 3

----------
// reported IC50 for each item listed
# Target of assay: Human Constitutive (Hu C-20S) β5 Active Subunit (Homo sapiens)
# Experimental details: IC50 determination, human constitutive 20S proteasome β5c (suc-LLVY-AMC hydrolysis)
# Assay type: biochemical
# Condition: Table 3; IC50 against human constitutive β5 active subunit; read-out: Hu-C20S β5
Your answer is read as µM, so omit the unit and give the number.

Some compounds with known IC50 results, for comparison:
C[C@H](NC(=O)[C@H](CC(=O)N1CCCC[C@@H]1C)NC(=O)C1CC2(C1)CC(F)(F)C2)c1nc2c(F)cccc2[nH]1 [CEN-57]: 28
Cc1cc(C(=O)N[C@@H](CC(=O)N2CCCC[C@@H]2C)C(=O)N[C@@H](C)c2ncc(-c3ccc(F)cc3)[nH]2)no1 [CEN-119]: 18
CC[C@H]1CCCCN1C(=O)C[C@H](NC(=O)C1CC(C)(C)C1)C(=O)N[C@@H](C)c1nc2c(F)cccc2[nH]1 [CEN-9]: 4.4
C[C@H](NC(=O)[C@H](CC(=O)N1CCCC1C1CC1)NC(=O)C1CC2(COC2)C1)c1nc2cccc(F)c2[nH]1 (some centres unmarked) [CEN-51]: 15
CC1CC(C(=O)N[C@@H](CC(=O)N2CCC[C@@H]2c2ccccc2)C(=O)NC(C)c2nc3ccccc3[nH]2)C1 (some centres unmarked) [CEN-46]: 8.4

Prompt: Value lookup for IC50; key = CC(C)CCC(=O)N[C@@H](CC(=O)N1CCCC[C@@H]1C)C(=O)NCc1nc2ccccc2[nH]1 [CEN-31]
Response: 17.6

----------
# Target of assay: Human Constitutive (Hu C-20S) β5 Active Subunit (Homo sapiens, UniProt P28074)
# Experimental details: IC50 determination, human constitutive 20S proteasome β5c (suc-LLVY-AMC hydrolysis)
# Assay type: biochemical
# Condition: Table 2; several values in a cell are repeat determinations; read-out: Hu c-20S IC50
Returns the class for an entry based on its IC50. Class ranges: lower bin: < 6 µM; middle bin: ≥ 6 µM and < 10 µM; upper bin: ≥ 10 µM

Example entries and their recorded answers appear below.
Cc1cc(C(=O)N[C@@H](CC(=O)N2CCCC2)C(=O)N[C@@H](C)c2nc(-c3ccc(F)cc3F)c[nH]2)no1: upper bin
C[C@H](NC(=O)[C@H](CC(=O)N1CCCC[C@@H]1C)NC(=O)CCc1ccccc1)C(=O)NCc1cccc(N)c1: lower bin
CC(C)CCC(=O)N[C@@H](CC(=O)N1CCCCC1C(C)C)C(=O)N[C@@H](C)c1ncc(-c2ccc(F)cc2F)[nH]1 (stereo partly drawn): lower bin
Cc1cc(C(=O)N[C@@H](CC(=O)N2CCC[C@@H]2c2ccccc2)C(=O)NC(C)c2nc3ccccc3[nH]2)no1 (stereo partly drawn): middle bin
C[C@H](NC(=O)[C@H](CC(=O)N1CCCC[C@@H]1C)NC(=O)CC1CC1)c1ncc(Cc2ccccc2)[nH]1: upper bin

Prompt: Would you mind sorting CC[C@H]1CCCCN1C(=O)C[C@H](NC(=O)CCN(C)C)C(=O)N[C@@H](C)c1nc2c(F)cccc2[nH]1 into the appropriate category?
Response: middle bin

Prompt: For CC[C@H]1CCCCN1C(=O)C[C@H](Nc1nc2ccccc2s1)C(=O)N[C@@H](C)c1nc2c(F)cccc2[nH]1 then?
Response: lower bin

Prompt: For C[C@H](NC(=O)[C@H](CC(=O)N1CCCC[C@@H]1C)NC(=O)CCC1CC1)c1ncc(-c2ccc(F)cc2F)[nH]1 then?
Response: upper bin

Prompt: For C[C@H](NC(=O)[C@H](CC(=O)N1CCCC[C@@H]1C)NC(=O)C1CCC1)c1ncc(-c2ccc(F)cc2F)[nH]1 then?
Response: lower bin

Prompt: For Cc1ccc(S(=O)(=O)N[C@@H](CC(=O)N2CCCC[C@@H]2C)C(=O)N[C@@H](C)c2ncc(-c3ccc(F)cc3F)[nH]2)cc1 then?
Response: middle bin

Prompt: For C[C@H](NC(=O)[C@H](CC(=O)N1CCCC[C@@H]1C)NCC(=O)c1ccccc1)c1ncc(-c2ccc(F)cc2F)[nH]1 then?
Response: upper bin

Prompt: For CC[C@H]1CCCCN1C(=O)C[C@H](NC(=O)CC(F)(F)F)C(=O)N[C@@H](C)c1nc2c(F)cccc2[nH]1 then?
Response: lower bin

Prompt: For C[C@@H](NC(=O)[C@H](CC(=O)N1CCC[C@@H]1C)NC(=O)CCC(C)(C)C)c1nc2ccccc2[nH]1 then?
Response: upper bin

Prompt: For C[C@H]1CCCCN1C(=O)C[C@H](NC(=O)CCC(C)(C)C)C(=O)NCc1nc2ccccc2[nH]1 then?
Response: upper bin

Prompt: For CC[C@H]1CCCCN1C(=O)C[C@H](NC(=O)CCC(C)C)C(=O)N[C@@H](C)c1nc2cc(F)c(F)cc2[nH]1 then?
Response: lower bin

Prompt: For CC[C@H]1CCCCN1C(=O)C[C@H](NC(=O)N(C)CC(C)C)C(=O)N[C@@H](C)c1nc2c(F)cccc2[nH]1 then?
Response: lower bin

Prompt: For CC(C)CCC(=O)N[C@@H](CC(=O)N1CCCC[C@H]1C)C(=O)N[C@@H](C)c1nc(-c2ccc(F)cc2F)c[nH]1 then?
Response: upper bin

Prompt: For CC(C)CCC(=O)N[C@@H](CC(=O)N1CCOC[C@@H]1C)C(=O)N[C@@H](C)c1nc(-c2ccc(F)cc2F)c[nH]1 then?
Response: upper bin

Prompt: For C[C@H](NC(=O)[C@H](CC(=O)N1CCC[C@@H]1c1ccccc1)NC(=O)CCC(C)(C)C)c1nc2ccccc2[nH]1 then?
Response: upper bin

Prompt: For CC(C)CCC(=O)N[C@@H](CC(=O)N1CCC[C@@H]1c1ccccc1)C(=O)NC(C)c1nc2ccccc2[nH]1 (stereo partly drawn) then?
Response: upper bin

Prompt: For CC(C)C1CC1C(=O)N[C@@H](CC(=O)N1CCCC[C@@H]1C)C(=O)N[C@@H](C)c1nc2c(F)cccc2[nH]1 (stereo partly drawn) then?
Response: lower bin

Prompt: For CC(C)CCC(=O)N[C@@H](CC(=O)N(C)C(C)C)C(=O)N[C@@H](C)c1ncc(-c2ccc(F)cc2F)[nH]1 then?
Response: upper bin

Prompt: For CC(C)CCC(=O)N[C@@H](CC(=O)N1CCCC[C@@H]1C)C(=O)N[C@@H](C)c1ncc(-c2ccc(F)cc2F)[nH]1 then?
Response: middle bin

Prompt: For CC(C)CCS(=O)(=O)N[C@@H](CC(=O)N1CCC[C@@H]1c1ccccc1)C(=O)NC(C)c1nc2ccccc2[nH]1 (stereo partly drawn) then?
Response: upper bin

Prompt: For CCN(CC)C(=O)C[C@H](NC(=O)CCC(C)C)C(=O)N[C@@H](C)c1nc(-c2ccc(F)cc2F)c[nH]1 then?
Response: middle bin
